# assay: qHTS for ATAD5 Antagonist screened against the NCATS CANVASS Library (AID 1347370);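 further: HEK293T cells carrying an ATAD5 luciferase reporter co-treated with 10 µM 5-fluorouridine; nearly all actives have a fitted effect of over 65% in size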
# run-conditions: HEK293T-ATAD5-luc, 5-FUrd stimulated, luminescence, 16 h; series mostly up to 46.1 µM
Records with an inconclusive call do not appear. Calls of active or inactive are those of the source. The call rests on the fitted dose curve; in most records, active means well fitted inhibition curve with a large enough effect; inconclusive means small, poorly fitted or top-dose-only effect; inactive means no such curve, though single readings can be large or run the other way.
// one of true (active), false (inactive), no free text

// query Given `CN1CC[C@@]2([C@@]34CCN(C)[C@@H]3Nc3ccccc34)c3ccccc3N[C@@H]12` , state the outcome it received in this test.
// result false

// query Likewise for `COc1cc2ccc(=O)oc2c(O)c1O[C@@H]1O[C@H](CO)[C@@H](O)[C@H](O)[C@H]1O` ?
// result false

These entries and their values trace back to PubChem BioAssay (NCATS).
